method.notes: Cytotoxicity against human THP1 cells assessed as cell viability at 18.72 ug/ml after 48 hrs by MTT assay relative to control
Type: cell-based
stated.conditions: THP-1 cells, read-out: Activity
viability at 48 h, 18.72 ug/ml for assorted compounds
Field format: number, assumed %, no unit text.

Some compounds with recorded viability at 48 h, 18.72 ug/ml:
smiles.notation: O=c1cc(-c2ccccc2)c2ccc(OCc3cn([C@@H]4O[C@H](CO)[C@@H](O)[C@H]4O)nn3)cc2o1
output.unit: %
viability at 48 h, 18.72 ug/ml: 84
//
smiles.notation: Cc1cc(=O)oc2cc(OCc3cn([C@@H]4O[C@H](CO)[C@@H](O)[C@H]4O)nn3)ccc12
output.unit: %
viability at 48 h, 18.72 ug/ml: 84
//
smiles.notation: O=C(OC[C@H]1O[C@@H](n2cc(COc3ccc4c(-c5ccccc5)cc(=O)oc4c3)nn2)[C@H](OC(=O)c2ccccc2)[C@@H]1OC(=O)c1ccccc1)c1ccccc1
output.unit: %
viability at 48 h, 18.72 ug/ml: 84
//
smiles.notation: O=c1ccc2ccc(OCc3cn([C@@H]4O[C@H](CO)[C@@H](O)[C@H]4O)nn3)cc2o1
output.unit: %
viability at 48 h, 18.72 ug/ml: 84
//
smiles.notation: [H]/N=C(/N)N[C@H]1[C@H](O)[C@@H](O)[C@H](O[C@@H]2O[C@@H](C)[C@](O)(C=O)[C@H]2O[C@@H]2O[C@@H](CO)[C@H](O)[C@@H](O)[C@@H]2NC)[C@@H](N/C(N)=N\[H])[C@@H]1O
output.unit: %
viability at 48 h, 18.72 ug/ml: 84
//
smiles.notation: NNC(=O)c1ccncc1
output.unit: %
viability at 48 h, 18.72 ug/ml: 67

viability at 48 h, 18.72 ug/ml for O=c1cc(-c2ccccc2)c2ccc(-c3cn([C@@H]4O[C@H](CO)[C@@H](O)[C@H]4O)nn3)cc2o1 ?
83

Which value of viability at 48 h, 18.72 ug/ml has been reported for Cc1cc(=O)oc2cc(-c3cn([C@@H]4O[C@H](CO)[C@@H](O)[C@H]4O)nn3)ccc12 in the records?
87

====

Recorded viability at 24 h, 75 ug/ml values for a group of compounds are listed next.
method.notes: Cytotoxicity against human THP1 cells assessed as cell viability at 75 ug/ml after 24 hrs by MTT assay relative to control
Type: cell-based
stated.conditions: THP-1 cells, read-out: Activity
All answers are understood in %, so give the number only.

smiles.notation: O=c1ccc2ccc(OCc3cn([C@@H]4O[C@H](CO)[C@@H](O)[C@H]4O)nn3)cc2o1
output.unit: %
viability at 24 h, 75 ug/ml: 68
//
smiles.notation: O=c1cc(-c2ccccc2)c2ccc(-c3cn([C@@H]4O[C@H](CO)[C@@H](O)[C@H]4O)nn3)cc2o1
output.unit: %
viability at 24 h, 75 ug/ml: 68

Which viability at 24 h, 75 ug/ml is listed for Cc1cc(=O)oc2cc(OCc3cn([C@@H]4O[C@H](CO)[C@@H](O)[C@H]4O)nn3)ccc12 ?
97

Recorded viability at 24 h, 75 ug/ml for Cc1cc(=O)oc2cc(-c3cn([C@@H]4O[C@H](CO)[C@@H](O)[C@H]4O)nn3)ccc12 , please?
96

====

assay.target: DNA gyrase subunit B (Escherichia coli, UniProt P0AES6)
method.notes: Inhibition of Escherichia coli DNA gyrase-B using relaxed pUC19 DNA as substrate after 1 hr by bromophenol blue dye based agarose gel electrophoresis method
endpoint.name: IC50 (µM)
Report as a plain number; the unit µM is understood.

Endpoint output: IC50 of Cc1cc(=O)oc2cc(-c3cn([C@@H]4O[C@H](CO)[C@@H](O)[C@H]4O)nn3)ccc12 . Value?
3.2

Bench note: what IC50 did Cc1cc(=O)oc2cc(OCc3cn([C@@H]4O[C@H](CO)[C@@H](O)[C@H]4O)nn3)ccc12 show?
0.8

====

method.notes: Cytotoxicity against human THP1 cells assessed as cell viability at 18.72 ug/ml after 24 hrs by MTT assay relative to control
Assay type: cell-based
stated.conditions: THP-1 cells, read-out: Activity
Cut-off 90% on viability at 24 h, 18.72 ug/ml: below means yes, at or above means no.

Consider the following illustrative entries.
smiles.notation: O=c1cc(-c2ccccc2)c2ccc(-c3cn([C@@H]4O[C@H](CO)[C@@H](O)[C@H]4O)nn3)cc2o1
assigned.category: yes
--
smiles.notation: [H]/N=C(/N)N[C@H]1[C@H](O)[C@@H](O)[C@H](O[C@@H]2O[C@@H](C)[C@](O)(C=O)[C@H]2O[C@@H]2O[C@@H](CO)[C@H](O)[C@@H](O)[C@@H]2NC)[C@@H](N/C(N)=N\[H])[C@@H]1O
assigned.category: no
--
smiles.notation: O=c1cc(-c2ccccc2)c2ccc(OCc3cn([C@@H]4O[C@H](CO)[C@@H](O)[C@H]4O)nn3)cc2o1
assigned.category: no

Decide: viability at 24 h, 18.72 ug/ml of Cc1cc(=O)oc2cc(OCc3cn([C@@H]4O[C@H](CO)[C@@H](O)[C@H]4O)nn3)ccc12 strictly below 90%?
no

# strict comparison: is reported viability at 24 h, 18.72 ug/ml < 90%? input = NNC(=O)c1ccncc1
yes

Does the reported viability at 24 h, 18.72 ug/ml of the following compound sit strictly below 90%? Cc1cc(=O)oc2cc(-c3cn([C@@H]4O[C@H](CO)[C@@H](O)[C@H]4O)nn3)ccc12
no

Is viability at 24 h, 18.72 ug/ml of O=C(OC[C@H]1O[C@@H](n2cc(COc3ccc4c(-c5ccccc5)cc(=O)oc4c3)nn2)[C@H](OC(=O)c2ccccc2)[C@@H]1OC(=O)c1ccccc1)c1ccccc1 strictly below 90%?
no

====

method.notes: Cytotoxicity against human THP1 cells assessed as cell viability at 9.36 ug/ml after 24 hrs by MTT assay relative to control
Format: cell-based
stated.conditions: THP-1 cells, read-out: Activity
Measured viability at 24 h, 9.36 ug/ml, listed per entry for reference.
Write it as a number; the unit % goes unstated.

Some solved entries appear below for comparison.
compound: Cc1cc(=O)oc2cc(OCc3cn([C@@H]4O[C@H](CO)[C@@H](O)[C@H]4O)nn3)ccc12
numeric.value: 100
--
compound: Cc1cc(=O)oc2cc(-c3cn([C@@H]4O[C@H](CO)[C@@H](O)[C@H]4O)nn3)ccc12
numeric.value: 100
--
compound: O=c1cc(-c2ccccc2)c2ccc(OCc3cn([C@@H]4O[C@H](CO)[C@@H](O)[C@H]4O)nn3)cc2o1
numeric.value: 100

Quick one: viability at 24 h, 9.36 ug/ml for NNC(=O)c1ccncc1 [ISONIAZID] ?
85

====

method.notes: Cytotoxicity against human THP1 cells assessed as cell viability at 4.68 ug/ml after 48 hrs by MTT assay relative to control
Type: cell-based
stated.conditions: THP-1 cells, read-out: Activity
Catalogue of viability at 48 h, 4.68 ug/ml readings, one per entry.
# output: bare number, implied unit %

smiles.notation: [H]/N=C(/N)N[C@H]1[C@H](O)[C@@H](O)[C@H](O[C@@H]2O[C@@H](C)[C@](O)(C=O)[C@H]2O[C@@H]2O[C@@H](CO)[C@H](O)[C@@H](O)[C@@H]2NC)[C@@H](N/C(N)=N\[H])[C@@H]1O
viability at 48 h, 4.68 ug/ml (%): 90

For the next question, use this molecule.
# get_value(readout='viability at 48 h, 4.68 ug/ml', item= O=c1cc(-c2ccccc2)c2ccc(-c3cn([C@@H]4O[C@H](CO)[C@@H](O)[C@H]4O)nn3)cc2o1 )
96

====

method.notes: Cytotoxicity against human THP1 cells assessed as cell viability at 75 ug/ml after 24 hrs by MTT assay relative to control
Assay type: cell-based
stated.conditions: THP-1 cells, read-out: Activity
endpoint.name: viability at 24 h, 75 ug/ml
Number first, unit second: that is the form wanted.

May I ask what viability at 24 h, 75 ug/ml has been recorded for O=c1cc(-c2ccccc2)c2ccc(OCc3cn([C@@H]4O[C@H](CO)[C@@H](O)[C@H]4O)nn3)cc2o1 ?
88%

====

method.notes: Cytotoxicity against human THP1 cells assessed as cell viability at 9.36 ug/ml after 24 hrs by MTT assay relative to control
Assay type: cell-based
stated.conditions: THP-1 cells, read-out: Activity
Reported viability at 24 h, 9.36 ug/ml by item:
Number in %, nothing else.

Entry under review: O=c1ccc2ccc(OCc3cn([C@@H]4O[C@H](CO)[C@@H](O)[C@H]4O)nn3)cc2o1 . Reported viability at 24 h, 9.36 ug/ml?
91

Quick one: viability at 24 h, 9.36 ug/ml of [H]/N=C(/N)N[C@H]1[C@H](O)[C@@H](O)[C@H](O[C@@H]2O[C@@H](C)[C@](O)(C=O)[C@H]2O[C@@H]2O[C@@H](CO)[C@H](O)[C@@H](O)[C@@H]2NC)[C@@H](N/C(N)=N\[H])[C@@H]1O ?
99

Fill blank: measured viability at 24 h, 9.36 ug/ml of the compound O=C(OC[C@H]1O[C@@H](n2cc(COc3ccc4c(-c5ccccc5)cc(=O)oc4c3)nn2)[C@H](OC(=O)c2ccccc2)[C@@H]1OC(=O)c1ccccc1)c1ccccc1 is ____.
100

# query: viability at 24 h, 9.36 ug/ml of entry O=c1cc(-c2ccccc2)c2ccc(-c3cn([C@@H]4O[C@H](CO)[C@@H](O)[C@H]4O)nn3)cc2o1
94
